tested target: CD3 delta/epsilon heterodimer (UniProt P04234+P07766)
Sequence (P04234 22-105, stated change not applied, chain 1 of 2): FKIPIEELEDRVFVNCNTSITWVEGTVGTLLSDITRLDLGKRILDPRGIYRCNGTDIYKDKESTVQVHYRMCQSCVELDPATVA
Sequence (P07766 23-126, stated change not applied, chain 2 of 2): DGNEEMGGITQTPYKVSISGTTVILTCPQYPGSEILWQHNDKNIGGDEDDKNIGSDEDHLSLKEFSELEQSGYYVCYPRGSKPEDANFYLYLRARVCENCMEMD
condition context: Nap-dU at n (6) positions [Nap-dU at 16,20,23,28,29,30,31,34,40,41,42,45,54]; ELISA, SB18, 37 C
pKd: −log10 of the molar value.
measured parameter: pKd

In [3]: df
Out[3]:
                              sequence_data                             tested_target  measured_parameter  meas_value
0  GAGTGACCGTCTGCCTGGATCCTGCCCTTTTAATCCGACTTTAATGGCCACGCTCACCAGCCACACCACCAGCC [AA001]  CD3 delta/epsilon heterodimer (UniProt P04234+P07766)                 pKd        8.50
